Field: IC50. Provide a value for each of the compounds that follow.
subject-of-test: Lp-PLA2 in human plasma (Homo sapiens, UniProt Q13093)
Construct: from tissue; host or cells: pooled human plasma
Sequence (Q13093 22-441): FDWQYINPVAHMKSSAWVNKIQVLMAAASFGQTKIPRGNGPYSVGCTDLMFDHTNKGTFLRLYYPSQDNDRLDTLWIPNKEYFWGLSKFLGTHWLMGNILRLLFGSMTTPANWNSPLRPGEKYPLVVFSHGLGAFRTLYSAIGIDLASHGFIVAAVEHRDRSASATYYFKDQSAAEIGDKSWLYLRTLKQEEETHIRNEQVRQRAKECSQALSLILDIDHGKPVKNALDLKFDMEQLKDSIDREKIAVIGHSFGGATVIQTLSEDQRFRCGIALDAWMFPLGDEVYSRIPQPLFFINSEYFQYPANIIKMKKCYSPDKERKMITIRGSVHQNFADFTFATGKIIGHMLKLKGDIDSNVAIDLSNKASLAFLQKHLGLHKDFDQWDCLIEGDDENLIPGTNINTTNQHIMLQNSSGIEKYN
experimental-protocol: Lp-PLA2 human plasma assay (Thio-PAF assay)
Assay type: biochemical
settings: pooled human plasma; read-out: pIC50 values in the thio-PAF assay (converted)

Field: example entries. Status: answers known.
INSERT INTO assay_data (compound, observed_value) VALUES
  ('C[C@@H]1CCn2c(cc(OCc3cccc(F)c3)nc2=O)N1C [E130]', '≤ 100 nM'),
  ('CC1CCn2c(cc(OCc3ccc(Oc4ccc(F)c(F)c4)c(F)c3)nc2=O)N1 (stereo not shown) [E3]', '≤ 100 nM'),
  ('C[C@@H]1CCn2c(cc(OCc3cc(F)c(Oc4ccc(Cl)cc4)c(F)c3)nc2=O)N1C [E124]', '≤ 100 nM'),
  ('[2H]C([2H])(Oc1cc2n(c(=O)n1)CC[C@@H](C)N2C)c1cc(F)cc(F)c1 [E50]', '≤ 100 nM');

I need IC50 for every entry listed below, if you could help.
1. C[C@@H]1CCn2c(cc(OCc3cc(F)c(Oc4cncc(C(F)(F)F)c4)c(F)c3)nc2=O)N1C [E148]
2. C[C@@H]1CCn2c(cc(OCc3ccc(Oc4ccc(C(F)(F)F)cc4)c(C#N)c3)nc2=O)N1C [E78]
3. C[C@H]1CCn2c(cc(OCc3cc(F)c(Oc4ccnc(C(F)(F)F)c4)c(F)c3)nc2=O)N1C [E146]
4. CCN1c2cc(OCc3cccc(F)c3F)nc(=O)n2CC[C@@H]1C [E53]
5. C[C@@H]1CCn2c(cc(OCc3ccc(Oc4ccc(F)cc4)c(C#N)c3)nc2=O)N1C [E125]
6. C[C@@H]1CCn2c(cc(OCc3ccc(Oc4ccc(C(F)(F)F)cc4)c(F)c3)nc2=O)N1C [E121]
7. CC1CCn2c(cc(OCc3cc(F)c(F)c(F)c3)nc2=O)N1C (stereo not shown) [E8]

Result:
["≤ 10 nM", "≤ 100 nM", "≤ 10 nM", "≤ 100 nM", "≤ 100 nM", "≤ 100 nM", "≤ 100 nM"]

---

Field: IC50. Provide a value for each of the compounds that follow.
subject-of-test: Lp-PLA2 in human plasma (Homo sapiens, UniProt Q13093)
Construct: from tissue; host or cells: pooled human plasma
experimental-protocol: Lp-PLA2 human plasma assay (Thio-PAF assay)
Assay type: biochemical
settings: pooled human plasma; read-out: pIC50 values in the thio-PAF assay (converted)

INSERT INTO measurements (compound, observed_value) VALUES
  ('C[C@H]1CCn2c(cc(OCc3ccc(F)c(F)c3)nc2=O)N1', '≤ 0.1 µM'),
  ('C[C@H]1CCn2c(cc(OCc3cc(F)c(Oc4cccc(C(F)(F)F)c4)c(F)c3)nc2=O)N1C', '≤ 0.01 µM'),
  ('C[C@@H]1CCn2c(cc(OCc3cc(F)c(F)c(F)c3)nc2=O)N1', '≤ 0.1 µM');

I need IC50 for every entry listed below, if you could help.
1. C[C@@H]1CCn2c(cc(OCc3cccc(F)c3F)nc2=O)N1C
2. C[C@@H]1CCn2c(cc(OCc3ccc(F)cc3)nc2=O)N1
3. C[C@H]1CCn2c(cc(OCc3cccc(C#N)c3)nc2=O)N1C
4. [2H]C([2H])(Oc1cc2n(c(=O)n1)CCC(C)(C)N2C)c1cc(F)cc(F)c1
5. CC1CCn2c(cc(OCc3ccc(Oc4ccc(C(F)(F)F)cc4)c(C#N)c3)nc2=O)N1 (centres unmarked) [E2]

Result:
1: ≤ 0.1 µM; 2: ≤ 0.1 µM; 3: ≤ 0.1 µM; 4: ≤ 0.1 µM; 5: ≤ 0.1 µM
